For Proteus mirabilis GN2425, measured MIC is reported for the entries below.
Provide the reading as a plain figure in µg/mL.

Example results:
1) CC1(C)S[C@@H]2[C@H](NC(=O)[C@H](NC(=O)c3ccnnc3O)c3ccccc3)C(=O)N2[C@H]1C(=O)O = 6.25
2) CSc1ncc(C(=O)NC(C(=O)N[C@@H]2C(=O)N3[C@@H]2SC(C)(C)[C@@H]3C(=O)O)c2ccccc2)c(O)n1 (stereo partly drawn) = 12.5
3) CCOC(=O)Oc1c(C(=O)NC(C(=O)N[C@@H]2C(=O)N3[C@@H]2SC(C)(C)[C@@H]3C(=O)O)c2ccccc2)cnc2c1CCCCC2 (stereo partly drawn) = 6.25
4) Cc1ncc(C(=O)NC(C(=O)N[C@@H]2C(=O)N3[C@@H]2SC(C)(C)[C@@H]3C(=O)O)c2ccccc2)c(O)c1C(C)O (stereo partly drawn) = 12.5
5) CC1(C)S[C@@H]2[C@H](NC(=O)C(NC(=O)c3ccnnc3O)C3=CCC=CC3)C(=O)N2[C@H]1C(=O)O (stereo partly drawn) = 12.5

Report measured MIC; entry is CCOC(=O)Oc1c(C(=O)N[C@@H](C(=O)N[C@@H]2C(=O)N3[C@@H]2SC(C)(C)[C@@H]3C(=O)O)c2ccccc2)cnc2c1CCC2
3.13

###

For Staphylococcus aureus 209P, measured MIC is reported for the entries below.
Just the number plus its unit, please.

Example results:
1) CC1(C)S[C@@H]2[C@H](NC(=O)C(NC(=O)c3cccnc3)c3ccccc3)C(=O)N2[C@H]1C(=O)O (stereo partly drawn) [II, reference compound] = 0.78 µg/mL
2) CSc1ncc(C(=O)NC(C(=O)N[C@@H]2C(=O)N3[C@@H]2SC(C)(C)[C@@H]3C(=O)O)c2ccccc2)c(O)n1 (stereo partly drawn) [Example 27] = 0.78 µg/mL
3) CC(C)(C)C(=O)Oc1c(C(=O)N[C@@H](C(=O)N[C@@H]2C(=O)N3[C@@H]2SC(C)(C)[C@@H]3C(=O)O)c2ccccc2)cnc2c1CCCC2 [Example 5] = 0.78 µg/mL
4) CC1(C)S[C@@H]2[C@H](NC(=O)C(NC(=O)c3ccnnc3O)c3ccsc3)C(=O)N2[C@H]1C(=O)O (stereo partly drawn) [Example 15] = 0.39 µg/mL
5) CCOC(=O)Oc1c(C(=O)N[C@@H](C(=O)N[C@@H]2C(=O)N3[C@@H]2SC(C)(C)[C@@H]3C(=O)O)c2ccccc2)cnc2c1CCCC2 [Example 6] = 0.78 µg/mL

Report measured MIC; entry is CCOC(=O)Oc1c(C(=O)NC(C(=O)N[C@@H]2C(=O)N3[C@@H]2SC(C)(C)[C@@H]3C(=O)O)c2ccccc2)cnc2c1CCCCC2 (stereo partly drawn) [Example 21]
0.78 µg/mL

Report measured MIC; entry is CC1(C)S[C@@H]2[C@H](NC(=O)C(NC(=O)c3cnccc3O)c3ccccc3)C(=O)N2[C@H]1C(=O)O (stereo partly drawn) [Example 25]
0.78 µg/mL

Report measured MIC; entry is CC1(C)S[C@@H]2[C@H](NC(=O)C(NC(=O)c3ccnnc3O)c3cccs3)C(=O)N2[C@H]1C(=O)O (stereo partly drawn) [Example 18]
0.39 µg/mL

Report measured MIC; entry is CC1(C)S[C@@H]2[C@H](NC(=O)[C@H](NC(=O)c3cnccc3O)C3=CCC=CC3)C(=O)N2[C@H]1C(=O)O [Example 11]
0.39 µg/mL
